# Test target: human GPR84 receptor (Homo sapiens)
# Construct: host or cells: HEK293, transiently transfected
# Sequence (Q9NQS5 whole entry): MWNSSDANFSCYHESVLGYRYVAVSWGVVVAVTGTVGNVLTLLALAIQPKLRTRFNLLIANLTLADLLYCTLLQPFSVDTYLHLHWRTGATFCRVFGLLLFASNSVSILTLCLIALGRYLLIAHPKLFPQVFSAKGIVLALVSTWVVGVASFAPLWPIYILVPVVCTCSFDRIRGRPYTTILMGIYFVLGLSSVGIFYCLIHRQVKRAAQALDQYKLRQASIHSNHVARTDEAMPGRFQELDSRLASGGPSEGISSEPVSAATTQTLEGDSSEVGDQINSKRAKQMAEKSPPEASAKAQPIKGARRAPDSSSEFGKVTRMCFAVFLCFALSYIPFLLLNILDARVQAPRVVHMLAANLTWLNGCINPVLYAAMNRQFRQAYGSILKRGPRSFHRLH
# Protocol details: Gαi biosensor BRET assay (GPR84 antagonism vs agonist ZQ-16)
# Type: cell-based
# Settings: tested at 10 μM (concentration code D); HEK293 cells; 200 nmol/L agonist ZQ-16
Please provide measured inhibition at 10 µM for the entries that follow.

// solved cases for inhibition at 10 µM follow
Cc1cc(C#CC2CC2)cc(=O)n1[C@H](C)c1ccc(Br)cc1 = < 25%
Cc1cc(OCC(=O)N2CC3(CCN(C)CC3)C2)cc(=O)n1[C@H](C)c1ccc(C#CC2CC2)cc1 = > 75%
Cc1cc(OCC2COCCO2)cc(=O)n1C(C)c1ccc(OCC2CCN(C(=O)C3CC3)CC2)c(F)c1 (stereo not shown) = < 25%
Cc1cc(OCC(=O)N2CC(C)(C)C2)cc(=O)n1[C@H](C)c1ccc(C#CC2CC2)cc1 = > 75%
Cc1cc(OCC(=O)N2CCN(C)CC2)cc(=O)n1[C@H](C)c1ccc(C#CC2CC2)cc1 = > 75%

Take each entry in turn and give its inhibition at 10 µM.
1. Cc1noc(COc2cc(C)n([C@H](C)c3ccc(C#CC4CC4)cc3)c(=O)c2)n1
2. Cc1cc(OCC(=O)N(C)C)cc(=O)n1[C@H](C)c1ccc(C#CC2CC2(F)F)cc1 (stereo partly shown)

Reply:
1. > 75%
2. > 75%

These entries and their values trace back to patent US20260055117A1.
